pIC50 for human eIF4E protein (Homo sapiens), merged from several publications.
pIC50: −log10 of the molar value.

Previously resolved entries follow.
## Input Give the reported pIC50 for COc1cc(-c2nc(Nc3ncc(-c4cccs4)cc3C(=O)O)sc2CC(C)C)cc(C(F)(F)F)c1 (system: human eIF4E protein (Homo sapiens)).
## Output ≥ 6.30

## Input Give the reported pIC50 for CCCC(CNc1nc(-c2ccc(Oc3ccccc3)cc2)c(-c2cccc3[nH]ccc23)s1)C(=O)O (centres unmarked) (system: human eIF4E protein (Homo sapiens)).
## Output 4.60 to 5.30

## Input Give the reported pIC50 for COCCOc1ccc(-c2nc(Nc3ncc(-c4cc(C)cs4)cc3C(=O)O)sc2CC(C)C)cc1 (system: human eIF4E protein (Homo sapiens)).
## Output ≥ 6.30

## Input Give the reported pIC50 for O=C(O)C1CCN(c2nc(-c3ccc(-c4cnco4)cc3)c(-c3ccccc3)s2)CC1 (system: human eIF4E protein (Homo sapiens)).
## Output < 4.60

Hi there! I need pIC50 for each item below, if you can.
1. CC1(C(=O)O)CN(c2nc(-c3ccc(-c4cnco4)cc3)c(-c3cncnc3)s2)C1
2. O=C(NCc1ccncc1)c1ccc(-c2ccc(-c3nc(-c4ccc(Cl)c(Cl)c4)cs3)cc2C(=O)O)cc1
3. O=C(NCC1CCCO1)c1ccc(-c2ccc(-c3nc(-c4ccc(Cl)c(Cl)c4)cs3)cc2C(=O)O)cc1 (centres unmarked)
4. CC(CNc1nc(-c2ccc(Oc3ccccc3)cc2)c(-c2cccnc2)s1)C(=O)O (centres unmarked)
5. CC(CNc1nc(-c2ccc(-c3ccc(F)cc3)cc2)c(-c2cccnc2)s1)C(=O)O (centres unmarked)
6. O=C(O)C1(CNc2nc(-c3ccc(-c4ccc(F)cc4)cc3)c(-c3ccccc3)s2)CC1
7. CC(C)Cc1sc(Nc2ncc(-c3cccs3)cc2C(=O)O)nc1-c1ccc(OC(F)(F)F)c(Cl)c1

## Output
1. < 4.60
2. 5.15
3. 5.26
4. < 4.60
5. < 4.60
6. > 5.30
7. ≥ 6.30

Hi there! I need pIC50 for each item below, if you can.
1. Cc1cc(-c2csc(-c3ccc(-c4ccccc4[N+](=O)[O-])c(C(=O)O)c3)n2)ccc1Cl
2. CC(CC(=O)O)Nc1nc(-c2ccc(-c3ccc(F)cc3)cc2)cs1 (centres unmarked)
3. CC1(C(=O)O)CN(c2nc(-c3ccc(Oc4ccccc4)cc3)c(-c3ccccc3)s2)C1
4. O=C(O)C1CN(c2nc(-c3ccccc3)c(-c3ccc(-c4ccc(F)cc4)cc3)s2)CCO1 (centres unmarked)
5. O=C(O)C1CCN(c2nc(-c3ccc(Oc4ccccc4)cc3)c(-c3ccccc3)s2)CC1
6. CC(C)(CNc1nc(-c2ccc(Oc3ccccc3)cc2)c(-c2cccc3[nH]ccc23)s1)C(=O)O

## Output
1: 5.23; 2: < 4.60; 3: 4.60 to 5.30; 4: > 5.30; 5: > 5.30; 6: 4.60 to 5.30

Hi there! I need pIC50 for each item below, if you can.
1. CC(CNc1nc(-c2ccc(-c3ccc(F)cc3)cc2)c(-c2ccccc2)s1)C(=O)O (centres unmarked)
2. O=C(O)C1CCCN(c2nc(-c3ccc(Oc4ccccc4)cc3)c(-c3ccccc3)s2)C1 (centres unmarked)
3. O=C(O)C1CC(CNc2nc(-c3ccc(-c4ccc(F)cc4)cc3)c(-c3cncnc3)s2)C1 (centres unmarked)

## Output
1: 4.60 to 5.30; 2: > 5.30; 3: < 4.60
